ASSAY TARGET: T1, mouse PD-L1 (soluble protein of the kinetic measurements) (mouse, UniProt Q9EP73 19-238, limits assumed)
T1 construct: kept apart from the His-tag protein of the ELISA; also called mPD-L1
T1 sequence (Q9EP73 19-238 limits assumed): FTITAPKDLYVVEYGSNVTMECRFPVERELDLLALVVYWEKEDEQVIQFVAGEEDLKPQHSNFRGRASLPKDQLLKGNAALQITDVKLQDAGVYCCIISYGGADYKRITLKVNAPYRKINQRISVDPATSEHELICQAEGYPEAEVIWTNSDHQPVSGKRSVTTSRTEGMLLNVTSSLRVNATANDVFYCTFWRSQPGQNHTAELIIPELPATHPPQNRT
PROCEDURE DETAILS: BLI (Octet), antibody fixed on biosensor, PD-L1 in solution
READOUT KIND: kon (M⁻¹ s⁻¹)
Entry rule: numbers only, all in M⁻¹ s⁻¹.

| BINDER | kon, M⁻¹ s⁻¹ |
| --- | --- |
| ME4.B12 anti-PD-L1 antibody (IgG form) (antibody, V domains shown) VH: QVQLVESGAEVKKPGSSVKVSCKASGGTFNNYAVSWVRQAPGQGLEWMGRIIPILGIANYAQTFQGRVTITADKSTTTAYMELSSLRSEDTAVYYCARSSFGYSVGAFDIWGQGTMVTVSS VL: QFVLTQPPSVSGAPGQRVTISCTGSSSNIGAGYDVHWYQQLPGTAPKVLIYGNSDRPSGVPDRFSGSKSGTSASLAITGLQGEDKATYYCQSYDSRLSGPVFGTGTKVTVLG | 310000 |
| ME4.A11 anti-PD-L1 antibody (IgG form) (antibody, V domains shown) VH: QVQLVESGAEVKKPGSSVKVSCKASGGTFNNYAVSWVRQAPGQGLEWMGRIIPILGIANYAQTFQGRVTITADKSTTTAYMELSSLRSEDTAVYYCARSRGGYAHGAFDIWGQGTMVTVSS VL: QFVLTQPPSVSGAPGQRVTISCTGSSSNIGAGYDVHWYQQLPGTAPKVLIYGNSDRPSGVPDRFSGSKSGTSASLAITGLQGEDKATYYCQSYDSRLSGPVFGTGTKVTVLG | 129000 |
| ME4.A12 anti-PD-L1 antibody (IgG form) (antibody, V domains shown) VH: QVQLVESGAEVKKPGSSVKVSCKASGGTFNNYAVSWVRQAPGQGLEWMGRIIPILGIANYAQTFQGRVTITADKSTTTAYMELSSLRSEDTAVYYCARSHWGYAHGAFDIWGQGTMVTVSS VL: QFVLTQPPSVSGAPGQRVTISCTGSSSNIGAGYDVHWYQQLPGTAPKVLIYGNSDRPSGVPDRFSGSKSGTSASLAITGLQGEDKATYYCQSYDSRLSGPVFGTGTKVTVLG | 308000 |

Kindly review the next binder as well.
Enquiry: # return recorded kon for entry ME4.B10 anti-PD-L1 antibody (IgG form) (antibody, V domains shown) VH: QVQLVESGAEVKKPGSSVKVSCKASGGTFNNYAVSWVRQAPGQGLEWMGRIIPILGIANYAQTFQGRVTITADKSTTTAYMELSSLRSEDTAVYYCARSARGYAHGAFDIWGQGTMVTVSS VL: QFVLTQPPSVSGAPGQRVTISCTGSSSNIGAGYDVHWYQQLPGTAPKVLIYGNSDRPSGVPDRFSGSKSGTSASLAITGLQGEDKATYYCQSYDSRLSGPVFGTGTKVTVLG
Return: 260000
